System: E-selectin mRNA
Assay: ELISA of E-selectin expression in HUVECs
Format: cell-based, human
Settings: HUVECs, ELISA, equivalent (second) experiment; read-out: IC50 for reduction of E-selectin expression
Strand notation (5' to 3'): a small letter for the sugar, then the base; units joined by * are phosphorothioate-linked, units joined directly phosphodiester-linked; [ ] holds rarer units or linkages, { } end groups; capitals alone tell only the bases. e = 2'-O-(2-methoxyethyl) (MOE); [5mC] = 5-methylcytosine; d = 2'-deoxy (DNA); f = 2'-fluoro
// values below are reported IC50
quantity: IC50

{"columns": ["substance", "target or system", "quantity", "reported measurement"],
 "data": [
  ["ISIS 11928: SEQ ID NO: 3, P═S all 2′-MOE except 3′ nt is deoxy, all C's 5meC; E-selectin 5′ cap (antisense eG*eA*eA*eG*eT*e[5mC]*eA*eG*e[5mC]*e[5mC]*eA*eA*eG*eA*eA*e[5mC]*eA*eG*e[5mC]*dT)", "E-selectin mRNA", "IC50", "< 3 nM"],
  ["ISIS 11929: SEQ ID NO: 3, P═O all 2′-MOE except 3′ nt is deoxy, all C's 5meC; E-selectin 5′ cap (antisense eGeAeAeGeTe[5mC]eAeGe[5mC]e[5mC]eAeAeGeAeAe[5mC]eAeGe[5mC]dT)", "E-selectin mRNA", "IC50", "< 3 nM"],
  ["ISIS 11205: SEQ ID NO: 3, P═S all 2′ F except 3′ nt is deoxy, all C's 5meC; E-selectin 5′ cap (antisense GAAGTCAGCCAAGAACAGCT; sugars from the 5' end f19 d1, all C 5-methyl, all phosphorothioate, T or U not given here)", "E-selectin mRNA", "IC50", "< 3 nM"]
]}
